Every entry's value here was drawn from ChEMBL document CHEMBL1133856.

Assay: Maximum plasma concentration determined in rat
Assay type: ADME, organism-based
endpoint-label: Cmax (ng/mL)
Record the value in ng/mL, omitting the unit from your answer.

COc1ccccc1N1CCN(C(=O)CCc2c(-c3ccc(Br)cc3)[nH]c3ccc(C)cc23)CC1
2

Turning to the following compound.
Query: For the compound Cn1c(-c2ccc(Cl)cc2)c(CCC(=O)N2CCC(O)(Cc3ccccc3)CC2)c2cc(Cl)ccc21 , give its measured Cmax value.
Reply: 4

###

Assay: Steady state volume of distribution determined in rat
Format: ADME, organism-based
Details: in vivo, read-out: Vss
Attribute: Vd
Quick reminder: number only, in L/kg, skip the unit.

COc1ccccc1N1CCN(C(=O)CCc2c(-c3ccc(Br)cc3)[nH]c3ccc(C)cc23)CC1
9.5

Query: Note down Vd recorded for Cn1c(-c2ccc(Cl)cc2)c(CCC(=O)N2CCC(O)(Cc3ccccc3)CC2)c2cc(Cl)ccc21
Reply: 3.5

###

Assay: Time for maximum plasma concentration determined in rat
Assay type: ADME, organism-based
endpoint-label: Tmax (h)
Only the number, expressed in h, is required.

COc1ccccc1N1CCN(C(=O)CCc2c(-c3ccc(Br)cc3)[nH]c3ccc(C)cc23)CC1
1.1

Now look at this entry.
Query: Look up Tmax of Cn1c(-c2ccc(Cl)cc2)c(CCC(=O)N2CCC(O)(Cc3ccccc3)CC2)c2cc(Cl)ccc21 and report it.
Reply: 1.2

###

Assay: Plasma clearance rate determined in rat
Type: ADME, organism-based
endpoint-label: clearance (mL/min/kg)
# value in mL/min/kg; strip the unit string

Query: // Input: COc1ccccc1N1CCN(C(=O)CCc2c(-c3ccc(Br)cc3)[nH]c3ccc(C)cc23)CC1 . Output its clearance only.
Reply: 179

###

Test: Mean residence time determined in rat
Type: ADME, organism-based
Conditions: in vivo, read-out: Time
Some molecules, each annotated with its measured MRT.

Cn1c(-c2ccc(Cl)cc2)c(CCC(=O)N2CCC(O)(Cc3ccccc3)CC2)c2cc(Cl)ccc21
1.8 h

Query: Could you please provide reported MRT for COc1ccccc1N1CCN(C(=O)CCc2c(-c3ccc(Br)cc3)[nH]c3ccc(C)cc23)CC1 ? Thanks!
Reply: 0.9 h

###

Assay: Half life of compound determined in rat
Type: ADME, organism-based
Details: in vivo, read-out: Time (converted)
endpoint-label: half-life (h)
Write it as a number; the unit h goes unstated.

Query: Determine from records and report half-life for Cn1c(-c2ccc(Cl)cc2)c(CCC(=O)N2CCC(O)(Cc3ccccc3)CC2)c2cc(Cl)ccc21
Reply: 3.1

###

Molecular target: Substance-P receptor (Homo sapiens)
Sequence (P25103 whole entry): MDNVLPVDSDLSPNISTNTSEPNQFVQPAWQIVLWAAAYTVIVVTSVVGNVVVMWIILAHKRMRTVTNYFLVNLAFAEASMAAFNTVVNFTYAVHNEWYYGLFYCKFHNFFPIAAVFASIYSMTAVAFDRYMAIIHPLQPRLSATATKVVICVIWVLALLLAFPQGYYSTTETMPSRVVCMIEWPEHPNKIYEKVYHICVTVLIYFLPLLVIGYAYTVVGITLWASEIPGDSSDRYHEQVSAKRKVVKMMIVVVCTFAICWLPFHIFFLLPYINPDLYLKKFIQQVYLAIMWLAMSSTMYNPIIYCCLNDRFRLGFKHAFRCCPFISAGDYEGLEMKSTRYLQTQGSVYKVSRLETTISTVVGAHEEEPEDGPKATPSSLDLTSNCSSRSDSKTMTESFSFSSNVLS
Assay: Ability to displace [125I]-labeled substance P from human cloned Tachykinin receptor 1 in CHO cells.
IC50 values by entry

See these solved cases before continuing.
CC(C)N1CCN(C(=O)CCc2c(-c3ccc(Cl)cc3)n(C)c3ccc(Cl)cc23)CC1
13 nM
Cn1c(-c2ccc(Cl)cc2)c(CCC(=O)N2CCN(Cc3ccccc3)C(=O)C2)c2cc(Cl)ccc21
0.39 nM
Cn1c(-c2ccc(Cl)cc2)c(CCC(=O)N2CCN(CC(=O)Nc3ccccc3)CC2)c2cc(Cl)ccc21
30 nM

Please find the next compound below.
Query: Specify the recorded IC50 for Cn1c(-c2ccc(Cl)cc2)c(CCC(=O)N2CCC(O)(Cc3ccccc3)CC2)c2cc(Cl)ccc21 , system: Substance-P receptor (Homo sapiens).
Reply: 0.21 nM
